Just for reference, the Kinase Knowledgebase extract (Sharma et al. 2016) is where these values come from.

The next entries give measured IC50 for PIK3CD (Human) (UniProt O00329).

CC(C)NS(=O)(=O)c1cncc(-c2ccc3nc(NC(=O)NCC(=O)N4CCOCC4)nn3c2)c1	< 100 nM

Consider the additional compound presented here.
Q: Specify reported IC50 for the compound shown: "CS(=O)(=O)c1cncc(-c2ccc3nc(NC(=O)NCC(=O)N4CCOCC4)nn3c2)c1"
Result: 100 to 1000 nM
